Data provenance is patent US20190322748A1.

target: full-length human Tim3 on cells (CHO-K1 stably transfected with plasmid 15312_hTIM3-fl_pUC_Neo) (human, UniProt Q8TDQ0 22-301); assay: cell-based or functional assay
quantity: IFN-gamma release in MLR at 1 µg/ml antibody, % of rec hu IL-2 (20 EU/ml) = 100% (%)

binder	observed
Tim3_0033 (antibody, V domains shown) VH: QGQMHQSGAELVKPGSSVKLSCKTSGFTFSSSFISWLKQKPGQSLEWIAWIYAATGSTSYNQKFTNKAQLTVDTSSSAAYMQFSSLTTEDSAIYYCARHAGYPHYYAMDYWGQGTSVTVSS VL: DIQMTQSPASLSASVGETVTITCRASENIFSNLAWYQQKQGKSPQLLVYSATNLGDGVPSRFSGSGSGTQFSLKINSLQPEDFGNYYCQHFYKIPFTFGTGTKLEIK	0
Tim3_0038 (antibody, V domains shown) VH: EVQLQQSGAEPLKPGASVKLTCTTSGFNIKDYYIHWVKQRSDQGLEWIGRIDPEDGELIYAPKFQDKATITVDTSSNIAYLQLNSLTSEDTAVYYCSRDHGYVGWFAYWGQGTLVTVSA VL: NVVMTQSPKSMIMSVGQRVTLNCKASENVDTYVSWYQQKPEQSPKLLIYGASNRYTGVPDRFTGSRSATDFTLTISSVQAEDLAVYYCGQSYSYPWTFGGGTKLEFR	1
Tim3_0026 (antibody, V domains shown) VH: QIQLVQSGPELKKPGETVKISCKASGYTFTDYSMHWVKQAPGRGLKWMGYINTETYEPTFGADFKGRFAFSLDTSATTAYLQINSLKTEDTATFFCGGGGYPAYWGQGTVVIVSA VL: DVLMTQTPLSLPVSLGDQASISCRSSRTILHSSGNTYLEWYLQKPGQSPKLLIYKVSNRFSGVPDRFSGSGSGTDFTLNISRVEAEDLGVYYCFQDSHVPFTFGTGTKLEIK	18
Tim3_0021 (antibody, V domains shown) VH: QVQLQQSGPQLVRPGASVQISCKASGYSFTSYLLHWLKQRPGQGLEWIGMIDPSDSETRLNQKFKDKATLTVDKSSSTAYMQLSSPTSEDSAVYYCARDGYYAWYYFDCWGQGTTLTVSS VL: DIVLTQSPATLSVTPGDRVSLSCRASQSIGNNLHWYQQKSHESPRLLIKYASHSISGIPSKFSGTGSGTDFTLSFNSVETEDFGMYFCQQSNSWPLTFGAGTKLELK	101
